Hey, just so you know, these numbers are from ChEMBL document CHEMBL3988442.

molecular target: AMP-activated protein kinase, AMPK (Homo sapiens) (UniProt P54646+O43741+P54619+Q9UGJ0+Q9Y478+Q13131+Q9UGI9); experiment: AMP-dependent Kinase enzyme assay. An in vitro enzyme assay that detects ADP turnover that is directly proportional to AMPK activity. This uses naive AMPK that is activated during the assay with MK-8722; format: functional; design: scale not given: direction of the effect not stated beside the values; conditions: 30 µM
attribute_measured: Percent Effect (%)
Please respond with the number in % and leave the unit unwritten.

Report measured Percent Effect; entry is Cc1cc(C)n(C2CN(CC(O)c3ccc4c(c3)OCO4)C2)n1 (stereo not drawn) 0.139

Report measured Percent Effect; entry is CC(Cn1ccnc1)NC(=O)NCCNC(=O)C(C)C (stereo not drawn) -2.17

Report measured Percent Effect; entry is CC(C)c1nc2n(n1)CC(NCc1nnc(-c3ccco3)o1)CC2 (stereo not drawn) -14.3

Report measured Percent Effect; entry is CCc1noc(C(C)N2CCN(Cc3noc(C)n3)CC2)n1 (stereo not drawn) -0.566

Report measured Percent Effect; entry is Cc1ccc(CC(=O)N2CC[C@@H]3CN(CCN(C)C)CCO[C@@H]3C2)cc1 9.51

Report measured Percent Effect; entry is Cc1csc(C2CCCN(C(=O)c3cnc[nH]3)C2)n1 (stereo not drawn) -8.22

Report measured Percent Effect; entry is Cc1ccc(NC(=O)N(C)Cc2cnn(C)c2)cc1OCC(F)F -18.9

Report measured Percent Effect; entry is CCc1nc(NCC(=O)N2CCOCC2)c2c(n1)c(C)nn2CC 0.5

Report measured Percent Effect; entry is N#Cc1ccccc1CN1C[C@@H]2CC[C@H](C1)N(Cc1cscn1)C2=O -3.34

Report measured Percent Effect; entry is Cc1cnn(CCNCC(O)COc2ccc(C#N)cc2)c1 (stereo not drawn) -8.43

Report measured Percent Effect; entry is Cc1nc(NC2CCCC2)cc(C2CCN2C(=O)c2cccnc2)n1 (stereo not drawn) 7.33

Report measured Percent Effect; entry is O=S(=O)(NCC1CCN(c2cnccn2)CC1)c1c(F)cccc1F -0.808

Report measured Percent Effect; entry is CCC(O)CNC(=O)c1coc(COc2ccc3sc(C)nc3c2)n1 (stereo not drawn) -4.19

Report measured Percent Effect; entry is COc1ccccc1CC(=O)NS(=O)(=O)c1cncc(Br)c1 4.69

Report measured Percent Effect; entry is CC(C)c1nccn1CCCNC(=O)c1ccc(N(C)C)nc1 -4.43

Report measured Percent Effect; entry is Cc1nc(CN2CCCn3c(nc(Cn4ccnc4)cc3=O)C2)cs1 7.35

Report measured Percent Effect; entry is O=C(O)c1cc2c(nc1O)CC(c1cccs1)CC2=O (stereo not drawn) -2.58

Report measured Percent Effect; entry is Cc1cc(CN(C)C(=O)c2cccc(N3CCCC3=O)c2)no1 -7.29

Report measured Percent Effect; entry is CC(=O)N1CCC(Cc2cnc(-c3c(C)n[nH]c3C)cn2)C1 (stereo not drawn) 10

Report measured Percent Effect; entry is COC(=O)c1ccc2ccn(CC3CCNC3)c(=O)c2c1 (stereo not drawn) -24.1

Report measured Percent Effect; entry is CC(C)c1nn(C)c(N2CCOCC2)c1CNC(C)c1cccs1 (stereo not drawn) -6.19

Report measured Percent Effect; entry is Cc1cnn(CC2CCCN2CCCc2nc3ccccc3o2)c1 (stereo not drawn) -13.1

Report measured Percent Effect; entry is O=C(c1cnco1)N1CCCC(Cc2cccc3ncccc23)C1 (stereo not drawn) 15.2

Report measured Percent Effect; entry is COC(=O)c1cccc(NS(=O)(=O)c2cnc(NC(C)=O)s2)c1 -2.6

Report measured Percent Effect; entry is CCN(C)c1ncnc2c1CCN(Cc1csc(C)n1)CC2 4.65

Report measured Percent Effect; entry is CCc1nc(C2CCCN2Cc2nccn2Cc2ccccc2)no1 (stereo not drawn) 1.64

Report measured Percent Effect; entry is Cn1nnc2c1C(COCc1ccccn1)CN(C(=O)c1cccs1)C2 (stereo not drawn) -9.82

Report measured Percent Effect; entry is CCNc1cc2c(nn1)CCN(C(=O)CC1CCCCC1)C2 0.0974

Report measured Percent Effect; entry is CCNS(=O)(=O)c1ccc(C)c(C(=O)N(C)Cc2ccco2)c1 4.21

Report measured Percent Effect; entry is Cn1ncc2c(NCCOc3ccc(F)cc3)nc(C3CCCC3)nc21 12.7

Report measured Percent Effect; entry is O=C(C1CCOC1)N1C[C@H]2CN(Cc3nccs3)C[C@H]2C1 (stereo partly drawn) 2.27

Report measured Percent Effect; entry is CCN(CC)c1ccc(-c2nc(-c3cccc(OC)c3OC)no2)cn1 -0.0158

Report measured Percent Effect; entry is O=C(c1cccs1)N1CCC(n2nc(-c3ccco3)ccc2=O)CC1 7.9

Report measured Percent Effect; entry is COC[C@]12COC[C@H]1CN(Cc1cc(OC)cc(OC)c1)C2 -1.96

Report measured Percent Effect; entry is COc1ncccc1CNC(=O)NC1CCOc2ccccc21 (stereo not drawn) -0.164

Report measured Percent Effect; entry is C1CC1c1nsc(N2CCN(C3CC3)CC2)n1 2.89

Report measured Percent Effect; entry is O=C(c1ccc(=O)[nH]n1)N1CC(c2nc(Cc3ccccc3)no2)C1 -1.62

Report measured Percent Effect; entry is Cc1ccc(CCNC(=O)N2CCCC(Cc3nccn3C)C2)cn1 (stereo not drawn) -1.4

Report measured Percent Effect; entry is Cn1nccc1CNC(=O)Nc1cc(C(F)(F)F)c[nH]c1=O -1.77

Report measured Percent Effect; entry is O=C(NCCCNC(=O)c1cccc(O)c1)Nc1ccc(F)cc1F 7.05

Report measured Percent Effect; entry is Cc1cnn(CCC(=O)N2CCCN(c3ncccc3C#N)CC2)c1 -1.68

Report measured Percent Effect; entry is COCC1CN(Cc2ccc(C)o2)Cc2cn(C)nc21 (stereo not drawn) -0.404

Report measured Percent Effect; entry is CCCn1nc2c(cc1=O)CN(CCS(C)(=O)=O)CC2 -30.8

Report measured Percent Effect; entry is COCc1cnc2n1CCN(Cc1cccnc1)C2C (stereo not drawn) 0.686

Report measured Percent Effect; entry is OC(COCc1ccccc1Cl)CN1CC(n2cccn2)C1 (stereo not drawn) 3.43

Report measured Percent Effect; entry is COCCCN1CCc2cncnc2C1 -237

Report measured Percent Effect; entry is O=C(C1COCCO1)N1CCN(Cc2ccc3c(c2)CCO3)CC1 (stereo not drawn) -0.262

Report measured Percent Effect; entry is Cn1nc(C2CCCN(Cc3ccsc3)C2)c2nccnc21 (stereo not drawn) 11.9

###

I'd appreciate it if you could supply Percent Effect values for the items below.
target: Chromo domain-containing protein 1 (Saccharomyces cerevisiae (strain ATCC 204508 / S288c) (Baker's yeast)) (UniProt P32657); test: ScCHD-1 Enzyme Inhibition Assay; type: functional; parameters: scale not given: in the data most compounds retested in dose-response had high values; conditions: 30 µM
Sequence (P32657 whole entry, the tested form may be a part): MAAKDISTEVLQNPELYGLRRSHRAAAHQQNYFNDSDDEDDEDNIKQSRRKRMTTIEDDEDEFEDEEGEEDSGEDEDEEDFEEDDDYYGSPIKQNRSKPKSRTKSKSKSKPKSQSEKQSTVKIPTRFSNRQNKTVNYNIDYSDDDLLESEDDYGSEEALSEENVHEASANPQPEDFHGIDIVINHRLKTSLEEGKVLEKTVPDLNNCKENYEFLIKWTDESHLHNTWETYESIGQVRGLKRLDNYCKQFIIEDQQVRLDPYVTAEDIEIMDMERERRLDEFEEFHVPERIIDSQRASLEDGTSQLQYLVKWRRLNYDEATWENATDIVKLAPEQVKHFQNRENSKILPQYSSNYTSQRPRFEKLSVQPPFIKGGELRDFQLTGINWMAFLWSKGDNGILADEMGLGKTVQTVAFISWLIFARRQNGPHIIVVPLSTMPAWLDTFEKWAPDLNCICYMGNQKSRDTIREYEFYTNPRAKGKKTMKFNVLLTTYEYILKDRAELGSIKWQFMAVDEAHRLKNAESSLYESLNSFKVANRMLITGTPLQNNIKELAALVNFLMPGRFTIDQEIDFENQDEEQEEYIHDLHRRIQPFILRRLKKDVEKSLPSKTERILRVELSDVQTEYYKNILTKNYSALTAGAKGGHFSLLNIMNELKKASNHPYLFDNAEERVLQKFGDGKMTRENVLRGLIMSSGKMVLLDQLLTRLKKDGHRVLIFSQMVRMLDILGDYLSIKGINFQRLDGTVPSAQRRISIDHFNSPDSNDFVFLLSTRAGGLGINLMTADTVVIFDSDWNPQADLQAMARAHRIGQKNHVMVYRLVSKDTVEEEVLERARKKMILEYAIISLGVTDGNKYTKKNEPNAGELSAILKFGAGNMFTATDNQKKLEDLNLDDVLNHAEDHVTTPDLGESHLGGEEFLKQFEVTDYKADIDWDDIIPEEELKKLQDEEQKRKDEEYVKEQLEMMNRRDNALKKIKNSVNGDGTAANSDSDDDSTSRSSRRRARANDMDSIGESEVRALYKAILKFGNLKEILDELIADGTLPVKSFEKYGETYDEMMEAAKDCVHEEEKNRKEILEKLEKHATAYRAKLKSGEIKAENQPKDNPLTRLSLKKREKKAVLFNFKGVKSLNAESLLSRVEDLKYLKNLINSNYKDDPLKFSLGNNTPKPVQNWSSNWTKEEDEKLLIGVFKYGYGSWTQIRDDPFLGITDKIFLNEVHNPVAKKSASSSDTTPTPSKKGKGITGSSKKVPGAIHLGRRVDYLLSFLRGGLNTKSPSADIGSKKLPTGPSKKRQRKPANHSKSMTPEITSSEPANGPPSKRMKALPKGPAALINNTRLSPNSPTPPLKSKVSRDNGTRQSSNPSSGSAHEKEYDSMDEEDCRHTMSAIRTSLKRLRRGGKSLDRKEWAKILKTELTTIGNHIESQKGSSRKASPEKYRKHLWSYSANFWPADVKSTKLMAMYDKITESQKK
Please respond with the number in % and leave the unit unwritten.

Report measured Percent Effect; entry is CCc1n[nH]c(C2CN(C(=O)c3cc4c(s3)CCCC4)CCO2)n1 (configuration not stated) -5.65

Report measured Percent Effect; entry is CN(C)c1ncnc2c1CCN(CC1CCCC1)CC2 1.8

Report measured Percent Effect; entry is COC(=O)c1cc(C(=O)N2CCOCC2(C)C)n(-c2ccccc2)n1 -9.02

Report measured Percent Effect; entry is Cc1nc(C)n(CC2CCCN(CCCOc3ccccc3)C2)n1 (configuration not stated) -5.2

Report measured Percent Effect; entry is COc1ccccc1CC(=O)NCc1c(C)nc2cc(=O)[nH]n2c1C -7.8

Report measured Percent Effect; entry is Cc1oc(C(=O)O)cc1S(=O)(=O)Nc1ccc(Cl)c(F)c1 -4.31

Report measured Percent Effect; entry is CCC(=O)N1CCCC1c1nccnc1Nc1ncccn1 (configuration not stated) -6.85

Report measured Percent Effect; entry is COc1ccc(C(O)CNc2c(C#N)c(=O)n(C)c(=O)n2C)cc1 (configuration not stated) -5.56

Report measured Percent Effect; entry is CC(NC(=O)NCCNc1cnccn1)c1cccs1 (configuration not stated) -11.5

Report measured Percent Effect; entry is CSCc1cccc(S(=O)(=O)N2CCC(C)CC2)c1 -6.13

Report measured Percent Effect; entry is Cc1ccc(Cl)cc1C(=O)N1CCC2(CC1)c1ccccc1[C@@H](N)[C@@H]2O 10.1

Report measured Percent Effect; entry is Cc1ccc(=O)n(CC2(O)CCN(Cc3cnc(C)nc3)CC2)n1 5.12

###

organism: Homo sapiens; test: To identify inhibition of the IFN signalling (Jak-Stat) pathway via expression of an eGFP reporter gene under the control of an IFN-stimulated response element (ISRE) containing MxA promoter.; assay type: functional; design: scale not given: direction of the effect not stated beside the values; details: 30 µM
I'd appreciate it if you could supply Percent Effect values for the items below.
Please respond with the number in % and leave the unit unwritten.

Report measured Percent Effect; entry is COc1ccccc1OCC(=O)NS(=O)(=O)c1ccccc1F 6.7

Report measured Percent Effect; entry is Cn1cc(C(=O)N[C@@H]2CN(Cc3cccs3)[C@@H]3CCCO[C@@H]32)cn1 -5.26

Report measured Percent Effect; entry is COc1ccc(C2CCCN2C(=O)CCNc2ncccn2)cc1 (centres undefined) 1.66

Report measured Percent Effect; entry is Cc1ccccc1-c1cc(NC(=O)CC(C)C)n(CCO)n1 0.574

Report measured Percent Effect; entry is O=C(CCc1cc(O)no1)N1CCCC(COc2ccc(F)cc2)C1 (centres undefined) -9.73

Report measured Percent Effect; entry is CC(Cn1cccn1)NC(=O)NCCc1ccc(Cl)s1 (centres undefined) 5.52

Report measured Percent Effect; entry is CN(C)C(=O)NC1COC2(CCN(Cc3ccccc3)CC2)C1 (centres undefined) 21.5

Report measured Percent Effect; entry is C[S+]([O-])c1nncn1CC(=O)c1cccc(Cl)c1 (centres undefined) -1.98

Report measured Percent Effect; entry is O=C(N1CCCCC1)N1CCN(CC(O)c2ccc(F)cc2)CC1 (centres undefined) 20.8

Report measured Percent Effect; entry is Cc1ccccc1NS(=O)(=O)c1cc2c(c(C(=O)O)c1)OCCO2 2.34

Report measured Percent Effect; entry is CC1COCCN1Cc1nc(-c2cccs2)no1 (centres undefined) 13.2

Report measured Percent Effect; entry is CCCC(NC(=O)c1cc(C)ccc1C)c1nnn[nH]1 (centres undefined) 12.3

Report measured Percent Effect; entry is CCc1ccc(CNC(=O)NC(C)CN2CCOCC2)s1 (centres undefined) 5.21

Report measured Percent Effect; entry is COC(=O)CCN1CCCC1c1ccccc1Cl (centres undefined) 1.88

Report measured Percent Effect; entry is CN(C)C(=O)CC1CC2(CCN(c3ncccn3)CC2)c2ccccc21 (centres undefined) 6.8

Report measured Percent Effect; entry is CCn1nc(C)c2nc(C(C)C)nc(NCCCO)c21 33.7

Report measured Percent Effect; entry is Cc1nc(N2CCCC2)nc2c1CCN(C(=O)C1CCCC1)CC2 -11.3

Report measured Percent Effect; entry is Fc1ccc(-c2nnc(CN3CCCC3Cn3cncn3)o2)cc1 (centres undefined) -14.3

Report measured Percent Effect; entry is CCn1c(=O)nc2n1C(=O)N(c1cccc(Cl)c1)C2 -10.2

Report measured Percent Effect; entry is O=C(NCc1ccccn1)c1nnn(-c2ccc(Br)cc2)n1 16.1

Report measured Percent Effect; entry is CO[C@H]1CCN(S(=O)(=O)c2cn(C)cn2)[C@H]1Cc1cnn(C)c1 1.21

Report measured Percent Effect; entry is CCOC(=O)C1CCN(C(=O)Cn2ccc3cc(Br)ccc32)CC1 4.34

Report measured Percent Effect; entry is CN(CCO)Cc1nnc(C2CCN(C3CCCCC3)CC2)n1C 10.8

Report measured Percent Effect; entry is COC(=O)c1cccc(C(=O)N2CCN(c3cccc(C)c3C)CC2)n1 87
